Values compiled from the supplement of paper PMC10065799.

biological target: FGFR3 (UniProt P22607); test: phosphorylation enrichment, bacterial display (enrichment ratio); higher = better substrate or ligand; peptides without Tyr show the background;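 note: 11-residue human phosphosite peptides and single-mutation variants displayed on the E. coli surface, counted by deep sequencing, each peptide's frequency after selection divided by its frequency in the unselected input library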;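 note: frequency after pTyr selection over input frequency; kinase dosed for 20-30% of maximal phosphorylation in three min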
Sequence (P22607 whole entry, looked up): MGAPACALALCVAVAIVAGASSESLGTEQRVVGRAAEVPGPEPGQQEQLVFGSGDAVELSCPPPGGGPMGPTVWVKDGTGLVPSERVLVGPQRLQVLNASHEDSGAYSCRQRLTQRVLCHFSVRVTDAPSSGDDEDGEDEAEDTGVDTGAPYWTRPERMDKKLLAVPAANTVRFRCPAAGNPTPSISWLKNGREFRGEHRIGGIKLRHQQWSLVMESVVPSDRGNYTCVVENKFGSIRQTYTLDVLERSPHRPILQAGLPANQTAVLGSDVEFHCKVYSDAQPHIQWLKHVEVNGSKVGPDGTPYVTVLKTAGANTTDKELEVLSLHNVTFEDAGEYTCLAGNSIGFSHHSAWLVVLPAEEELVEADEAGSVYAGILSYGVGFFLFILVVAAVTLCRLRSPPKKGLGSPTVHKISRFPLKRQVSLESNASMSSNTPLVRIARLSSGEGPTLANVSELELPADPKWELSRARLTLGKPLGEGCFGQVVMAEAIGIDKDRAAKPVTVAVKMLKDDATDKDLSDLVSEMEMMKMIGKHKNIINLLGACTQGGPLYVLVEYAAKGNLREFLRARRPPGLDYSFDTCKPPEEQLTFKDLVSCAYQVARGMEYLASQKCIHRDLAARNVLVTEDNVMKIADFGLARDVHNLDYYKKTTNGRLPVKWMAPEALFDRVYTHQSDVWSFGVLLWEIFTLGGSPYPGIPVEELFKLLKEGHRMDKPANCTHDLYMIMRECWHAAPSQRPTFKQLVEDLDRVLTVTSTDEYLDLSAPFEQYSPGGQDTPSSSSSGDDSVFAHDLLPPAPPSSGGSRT
measured-quantity: phosphorylation enrichment

[[record]]
sequence_data = "DDHFTYSRFPW [LY75_Y888_YF]"
value_observed = 0.797

[[record]]
sequence_data = "VVPGSYDRLRV [IFT172_Y260_L257P]"
value_observed = 0.439

[[record]]
sequence_data = "ATPSRYMTFLH [DYNC2H1_Y2872]"
value_observed = 0.574

[[record]]
sequence_data = "RGNMYYENSYA [EGFR_Y113]"
value_observed = 1.02

[[record]]
sequence_data = "RMSSSYPTGLA [ADM_Y52]"
value_observed = 0.613

[[record]]
sequence_data = "KFACSYTPVKA [FLNB_Y708_T703K_YF]"
value_observed = 0.579

[[record]]
sequence_data = "WCSNDHLGMSR [ALAS2_Y199_Y199H]"
value_observed = 0.576

[[record]]
sequence_data = "PLGPLYASSNP [INSR_Y992]"
value_observed = 0.742

[[record]]
sequence_data = "PFTRNYYVWAV [CYBA_Y87_R90W]"
value_observed = 8.21

[[record]]
sequence_data = "SHSMRYFFTAV [HLA-C_Y31_D33F]"
value_observed = 0.874

[[record]]
sequence_data = "KNSFKYYMSDD [ATRX_Y203_C200S]"
value_observed = 0.604

[[record]]
sequence_data = "RQNNSYTCFTA [SLC20A2_Y386_R382Q_YF]"
value_observed = 0.904

[[record]]
sequence_data = "TVMGLYQKSSL [MYH7_Y609_V606M]"
value_observed = 0.618

[[record]]
sequence_data = "FGCGMYSHLQG [LGR4_Y848_D844G_YF]"
value_observed = 0.916

[[record]]
sequence_data = "GHLYAYDWIRI [BEST1_Y227_S231R]"
value_observed = 2.73

[[record]]
sequence_data = "RFLRGYRQDAF [HLA-A_Y137_YF]"
value_observed = 0.677

[[record]]
sequence_data = "VICRRYLVMQR [IL3RA_Y328]"
value_observed = 0.74

[[record]]
sequence_data = "TESNNYIYTTL [FAM83B_Y637_K640T]"
value_observed = 1.92

[[record]]
sequence_data = "IMITDYLPLFR [INSR_Y87_L89P]"
value_observed = 0.729

[[record]]
sequence_data = "QYQLKYSETPF [SIX6OS1_Y129]"
value_observed = 0.769

[[record]]
sequence_data = "KGNMFYENSFA [EGFR_Y113_R108K_YF]"
value_observed = 0.535

[[record]]
sequence_data = "SVGGCYEQLFV [MC4R_Y41_D37V]"
value_observed = 0.972

[[record]]
sequence_data = "INITIYGKTFC [EFHC1_Y177_R182C]"
value_observed = 0.909

[[record]]
sequence_data = "PELINYHQHYS [BTK_Y361_N365Y]"
value_observed = 0.585

[[record]]
sequence_data = "HLQQSNLPRGT [TEX45_Y396_Y396N]"
value_observed = 0.644

[[record]]
sequence_data = "AEPHTYEEPGR [EPHA8_Y616]"
value_observed = 0.581

[[record]]
sequence_data = "AAYNRYDQERF [CDC73_Y293]"
value_observed = 0.538

[[record]]
sequence_data = "GPGLVYGVANK [FLNB_Y1833]"
value_observed = 0.483

[[record]]
sequence_data = "HNLYSYPTKYE [MYO3A_Y1396_H1400Y]"
value_observed = 0.683

